Cited source for all entries: patent US20250243190A1

- target-or-test-system: RORγt (Homo sapiens, UniProt P51449)
- Sequence (P51449 269-508 limits assumed): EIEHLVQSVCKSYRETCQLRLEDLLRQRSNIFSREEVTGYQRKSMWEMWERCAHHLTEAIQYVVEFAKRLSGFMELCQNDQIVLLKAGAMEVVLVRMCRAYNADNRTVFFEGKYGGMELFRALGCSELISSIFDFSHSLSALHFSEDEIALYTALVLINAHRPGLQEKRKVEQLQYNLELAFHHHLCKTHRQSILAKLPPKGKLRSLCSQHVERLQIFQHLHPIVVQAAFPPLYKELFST
- protocol-notes: Indigo Biosciences Human RAR-related Orphan Receptor, Gamma Reporter Assay (in vitro inhibition of RORγt)
- assay-conditions: RORγt reporter cells, luciferase readout, 22-24 h incubation; read-out: IC50 range
// IC50 lookup, one value per entry

Worked examples follow.
                                   compound  quantity_measured  value_observed
0  [2H]C([2H])(OC(F)(F)F)c1c(-c2c(F)cccc2Cl)noc1-c1cnn(-c2cccc(Cl)c2)c1C(F)(F)F [Example 109]               IC50    10 to 100 nM
1  [2H]C([2H])(OC1CC1)c1c(-c2c(F)cccc2Cl)noc1-c1cnn(-c2cc(F)cc(Cl)c2)c1C(F)(F)F [111/3]               IC50    10 to 100 nM
2  [2H]C([2H])(CC(C)(C)O)n1ncc(-c2onc(-c3c(F)cc(OC)cc3Cl)c2-c2ncccn2)c1C(F)(F)F [Example 5]               IC50  100 to 1000 nM
3  [2H]C([2H])(OC1CC1)c1c(-c2c(F)cccc2Cl)noc1-c1cnn(C([2H])([2H])CC(C)(C)O)c1C(F)(F)F [Example 9]               IC50    10 to 100 nM
4  [2H]C([2H])(OCC)c1c(-c2c(F)cccc2Cl)noc1-c1cnn(-c2cccc(Cl)c2)c1C(F)(F)F [110/3]               IC50    10 to 100 nM

Query :: I would be grateful if you could share the reported IC50 for [2H]C(C)(O)C([2H])([2H])n1ncc(-c2onc(-c3c(F)cccc3Cl)c2-c2ncccn2)c1C(F)(F)F (stereo not shown) [Example 1/1] .
Result :: 10 to 100 nM

Query :: Do the same for [2H]c1cc([2H])c(-n2ncc(-c3onc(-c4c(F)cccc4Cl)c3C(=O)OC)c2C(F)(F)F)c([2H])c1Cl [Example 105] please
Result :: < 10 nM
